Target: T1, murine GPC3-his protein (Sino Biological, Cat. No. 50989-M08B) (murine, UniProt Q8CFZ4 25-558)
T1 construct: Bought protein; also called murine GPC3 protein
T1 sequence (Q8CFZ4 25-558 limits assumed): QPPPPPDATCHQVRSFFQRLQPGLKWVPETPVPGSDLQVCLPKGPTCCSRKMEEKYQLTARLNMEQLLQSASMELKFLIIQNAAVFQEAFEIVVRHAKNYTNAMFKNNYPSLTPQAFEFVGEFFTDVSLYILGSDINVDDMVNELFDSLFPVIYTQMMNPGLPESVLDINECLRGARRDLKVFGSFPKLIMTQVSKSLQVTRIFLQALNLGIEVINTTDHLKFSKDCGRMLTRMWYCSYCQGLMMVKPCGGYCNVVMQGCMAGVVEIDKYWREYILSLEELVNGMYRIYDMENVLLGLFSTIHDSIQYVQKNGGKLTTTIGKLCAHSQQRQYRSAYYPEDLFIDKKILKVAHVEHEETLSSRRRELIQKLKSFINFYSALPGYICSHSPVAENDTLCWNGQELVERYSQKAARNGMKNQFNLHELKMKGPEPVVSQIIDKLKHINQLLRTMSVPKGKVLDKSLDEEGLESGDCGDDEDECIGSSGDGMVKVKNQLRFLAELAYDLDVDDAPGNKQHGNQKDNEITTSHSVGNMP
Assay: ELISA, coated murine GPC3-His;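 also: antigen coated on plates at 1 µg/mL, test antibody bound for 2 h at 37 °C, detected with HRP-conjugated secondary antibody and TMB substrate after acid stop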
Give OD450 at 1 nM antibody for every item shown.
Numbers only, in OD450 nm.

Memo: F2.152.3 human-murine chimeric antibody (antibody, human IgG1, kappa, V domains shown) VH: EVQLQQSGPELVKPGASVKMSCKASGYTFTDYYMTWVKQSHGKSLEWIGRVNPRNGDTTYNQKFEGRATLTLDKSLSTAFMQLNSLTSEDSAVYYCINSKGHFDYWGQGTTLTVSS VL: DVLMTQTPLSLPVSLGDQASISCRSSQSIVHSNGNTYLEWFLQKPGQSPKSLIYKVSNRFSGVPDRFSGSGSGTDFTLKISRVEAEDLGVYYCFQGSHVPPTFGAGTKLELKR , reported OD450 at 1 nM antibody: 2.54

Memo: F2.92.1 human-murine chimeric antibody (antibody, human IgG1, kappa, V domains shown) VH: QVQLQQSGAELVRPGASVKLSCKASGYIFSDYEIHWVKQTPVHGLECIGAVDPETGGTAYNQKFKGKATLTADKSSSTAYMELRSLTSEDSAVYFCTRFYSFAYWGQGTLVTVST VL: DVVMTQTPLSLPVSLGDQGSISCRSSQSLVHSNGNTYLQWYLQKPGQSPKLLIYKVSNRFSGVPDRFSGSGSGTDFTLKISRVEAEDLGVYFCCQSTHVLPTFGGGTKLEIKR , reported OD450 at 1 nM antibody: 0.05

Memo: F1.145.22 human-murine chimeric antibody (antibody, human IgG1, kappa, V domains shown) VH: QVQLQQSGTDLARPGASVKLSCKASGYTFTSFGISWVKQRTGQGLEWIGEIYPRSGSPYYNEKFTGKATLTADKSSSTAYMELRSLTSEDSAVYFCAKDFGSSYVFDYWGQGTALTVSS VL: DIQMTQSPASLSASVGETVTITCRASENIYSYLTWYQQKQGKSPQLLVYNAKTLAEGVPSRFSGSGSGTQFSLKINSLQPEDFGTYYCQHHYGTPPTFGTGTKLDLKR , reported OD450 at 1 nM antibody: 0.77

Memo: F1.41.17 human-murine chimeric antibody (antibody, human IgG1, kappa, V domains shown) VH: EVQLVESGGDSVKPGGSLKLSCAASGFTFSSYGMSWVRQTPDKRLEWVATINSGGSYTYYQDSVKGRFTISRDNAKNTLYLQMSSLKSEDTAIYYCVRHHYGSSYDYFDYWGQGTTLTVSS VL: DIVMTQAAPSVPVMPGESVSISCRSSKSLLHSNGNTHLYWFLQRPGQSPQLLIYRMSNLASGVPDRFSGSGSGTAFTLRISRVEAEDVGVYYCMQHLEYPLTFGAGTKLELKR , reported OD450 at 1 nM antibody: 0.07

Continuing:
Memo: F1.92.17 human-murine chimeric antibody (antibody, human IgG1, kappa, V domains shown) VH: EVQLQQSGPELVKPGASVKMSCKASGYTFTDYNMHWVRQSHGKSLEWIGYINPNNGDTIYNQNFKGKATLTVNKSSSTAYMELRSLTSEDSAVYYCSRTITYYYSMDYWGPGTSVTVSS VL: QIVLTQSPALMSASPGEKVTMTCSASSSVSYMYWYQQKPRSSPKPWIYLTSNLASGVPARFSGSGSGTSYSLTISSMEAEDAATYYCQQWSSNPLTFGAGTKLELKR , reported OD450 at 1 nM antibody: 0.11
